- System: MDA-MB-231 breast
- test: NCI tumour cell line growth inhibition, 48 h
I'd appreciate it if you could supply TGI values for the items below.

Prompt: What measured TGI goes with CCOc1cc2c(cc1O)/C(=N\N)C[C@@H]1[C@@H]2CC[C@]2(C)[C@@H](O)CC[C@@H]12 ?
Response: > 42.9 µM

Prompt: Next: COC(=O)[C@@H](NC(=O)NC(=O)NC(=O)CI)C(C)C
Response: 34.9 µM

Prompt: Next: COc1cc2c(cc1OC)C13CCN4C=C5CCOC6CC(=O)N2C1C6C5CC43 (configuration not stated)
Response: > 100 µM

Prompt: Next: O=C1C(N2CCCC2)=CC(=O)c2c(O)c(N3CCCC3)c(Cl)c(O)c21
Response: > 10 µM

Prompt: Next: Cc1ccc(S(=O)(=O)c2scc(-c3ccccc3)c2C)cc1
Response: > 100 µM

Prompt: Next: O=S(=O)(Oc1ccc2oc3ccccc3c2c1-c1c(OS(=O)(=O)C(F)(F)F)ccc2oc3ccccc3c12)C(F)(F)F
Response: > 100 µM

Prompt: Next: CC(=O)C1=C(O)C=C2Oc3c(C(=O)/C=C/c4cc(C(F)(F)F)cc(C(F)(F)F)c4)c(O)c(C)c(O)c3[C@]2(C)C1=O
Response: 1.84 µM

Prompt: Next: O=C(O)CSCc1cccc2ccccc12
Response: > 100 µM

Prompt: Next: CC1=NN(c2nc(N)nc(-c3ccccc3S(N)(=O)=O)n2)C(C)(C)C1
Response: > 100 µM

Prompt: Next: CC(C)(C)OC(=O)CN1CCNCCNCC1
Response: > 100 µM

Prompt: Next: C/C=C/[C@@]1(OC(=O)c2ccccc2)C[C@@H]2CCCC[C@@H]21
Response: 36.3 µM

Prompt: Next: CCOC(=O)CCCn1nnc(C(=O)OCC)c1C(=O)OCC
Response: > 100 µM

Prompt: Next: O=C(Cc1ccccc1)NCCc1ccc(O)c(O)c1
Response: > 100 µM

Prompt: Next: COc1cccc2c1OC1c3ccccc3OCC1C2 (configuration not stated)
Response: > 100 µM

Prompt: Next: Nc1nc(Cl)cc(NCC2(O)CC(CO)C2)n1 (configuration not stated)
Response: > 100 µM

Prompt: Next: O=[As](O)(O)c1ccc(NCc2ccccc2)cc1
Response: > 100 µM

Prompt: Next: COc1ccc2oc(=N)c(C(=O)Nc3cccc4ccccc34)cc2c1
Response: 79.1 µM

Prompt: Next: O=C1c2ccccc2C2CNC1(O)c1ccccc12 (configuration not stated)
Response: > 100 µM

Prompt: Next: C=CCNC(=S)Nc1sc2c(c1C(=O)OCC)CC(C)CC2 (configuration not stated)
Response: 57 µM

Prompt: Next: O=C1c2ccccc2C(=O)N1n1c(Cc2ccccc2)n[nH]c1=O
Response: > 100 µM

Prompt: Next: CCSc1nnc2c(-c3ccccc3)n[nH]c2n1
Response: > 100 µM

Prompt: Next: C=C(C)[C@@]1(O)O[C@H]2C[C@@]3(C)OC(=CC3=O)/C(C)=C\[C@@H]3OC(=O)[C@@]1(C)[C@H]32
Response: 43.9 µM

* * *

- Tested on: COLO 205 colon
- test: NCI tumour cell line growth inhibition, 48 h
I'd appreciate it if you could supply TGI values for the items below.
Field format: number, assumed µM, no unit text.

Prompt: What measured TGI goes with Cc1cc(C)nc(NC(N)=NCCc2ccccc2)n1 ?
Response: 12.5

Prompt: Next: O=C(/C=C/c1ccc(B(O)O)cc1)/C=C/c1ccc(B(O)O)cc1
Response: 4.83

* * *

- System: HCT-116 colon
- test: NCI tumour cell line growth inhibition, 48 h
measuredAttribute: TGI

Prompt: I'm curious: which TGI was measured for COc1ccc(-c2nc(N)c(C#N)c3c2CCS(=O)(=O)c2ccc(C)cc2-3)cc1OC tested on HCT-116 colon?
Response: > 100 µM

Prompt: Next: COc1cc(/C(Cl)=C/C=C/C(=O)c2c(C)[n+]([O-])c3ccc(Cl)cc3[n+]2[O-])cc(OC)c1OC
Response: 8.98 µM

Prompt: Next: Cc1ccc(C2CC(=O)CC(c3ccc(C)cc3)C23C(=O)NC(=O)NC3=O)cc1 (stereo unspecified)
Response: > 100 µM

Prompt: Next: O=C(O)c1ccccc1.[Ag]
Response: 46.3 µM

Prompt: Next: CC1CC2C3CC(F)C4=CC(=O)C=CC4(C)C3(F)C(O)CC2(C)C1(O)C(=O)COC(=O)C(C)(C)C (stereo unspecified)
Response: > 100 µM

Prompt: Next: COc1cc(CCc2cccnc2)cc(OC)c1OC
Response: > 100 µM

Prompt: Next: CCOc1cc2c(cc1O)/C(=N\N)C[C@@H]1[C@@H]2CC[C@]2(C)[C@@H](O)CC[C@@H]12
Response: > 37.8 µM

Prompt: Next: FC(F)(F)C1(Cl)C(c2ccccc2)=C1c1ccccc1
Response: 27.4 µM

Prompt: Next: Cc1nc2ccc(CN(C)c3ccc(C(=O)N[C@@H](CCC(=O)O)C(=O)O)s3)cc2c(=O)[nH]1
Response: > 100 µM

Prompt: Next: O=C(Nc1c(O)[nH]c(=S)[nH]c1=O)c1ccccn1
Response: > 100 µM

Prompt: Next: Nc1ncnc2c1ncn2C1OC(COP(=O)(O)CP(=O)(O)O)C(O)C1O (stereo unspecified)
Response: > 100 µM

Prompt: Next: COc1ccc(/C=C2\CN(C)Cc3c2nc(N)nc3-c2ccc(OC)cc2)cc1
Response: > 100 µM

Prompt: Next: O=C(CC1=Nc2nnc(-c3nnc4n3C(=O)C(CC(=O)c3cccnc3)=N4)n2C1=O)c1cccnc1
Response: > 100 µM

Prompt: Next: O=S(=O)(Nc1ncccn1)c1ccc(N=Nc2ccc(O)c3ncccc23)cc1
Response: 40.4 µM

Prompt: Next: CC1=C(C(=O)NCc2ccccc2)C(c2ccc(C3C(C(=O)NCc4ccccc4)=C(C)NC(C)=C3C(=O)NCc3ccccc3)cc2)C(C(=O)NCc2ccccc2)=C(C)N1
Response: 10.2 µM

Prompt: Next: Cc1ccc(C)n1-c1ccccc1C1SCCCS1
Response: > 100 µM

Prompt: Next: O=C(O)c1ccccc1Cc1ccco1
Response: > 100 µM

Prompt: Next: COc1cc(C(=O)OCCCCCCCCCCC[P+](c2ccccc2)(c2ccccc2)c2ccccc2)ccc1O
Response: 1.09 µM

Prompt: Next: CCOC(=O)c1cnc(-n2[nH]c(C)c(CCO)c2=O)[nH]c1=O
Response: > 100 µM

Prompt: Next: COc1c2c(c3c(c1C1OC(C)[C@@H](C)O1)CC(C)(C)O3)C(=O)c1ccccc1C2=O (stereo partly specified)
Response: > 100 µM

Prompt: Next: CCC(C)[C@H](NC(=O)[C@H](Cc1ccccc1)NC(=O)N(CC)c1ccccc1)C(=O)N[C@@H](CC(C)C)C(=O)OC (stereo partly specified)
Response: > 100 µM

Prompt: Next: CC(C)(C)OC(=O)NCCNC1=CC(=O)c2nc3ccccc3c3ccnc1c23
Response: > 100 µM

Prompt: Next: CCOc1ccccc1NC(=O)CCC(=O)OC
Response: > 100 µM

Prompt: Next: C=C1C(=O)OC2/C=C(\C)C(OC(C)=O)C3OC3C(C)(O)CC(OC(=O)/C(C)=C/C)C12 (stereo unspecified)
Response: 5.86 µM

Prompt: Next: COc1cc2c(/C=N\N=C(N)N)c(Cl)[nH]c2cc1C
Response: 21.9 µM

Prompt: Next: C/C=C/[C@@]1(OC(=O)c2ccccc2)C[C@@H]2CCCC[C@@H]21
Response: 29.4 µM

Prompt: Next: C=C(Cn1c(=O)c2ccccc2c2ccccc21)c1ccc(C(=O)Nc2ccccc2N)cc1
Response: > 100 µM

Prompt: Next: O=C(O)CSCc1cccc2ccccc12
Response: > 100 µM

Prompt: Next: CCOC(=O)c1ccc(N=NN(C)C(=O)C(C)N)cc1 (stereo unspecified)
Response: > 100 µM

Prompt: Next: COc1ccc(C#Cc2ccccc2C#CCCCCO)cc1
Response: 43.7 µM

Prompt: Next: COC(=O)c1c2c(cc3c1CC1(Cc4ccccc4C1=O)C3)CCC2 (stereo unspecified)
Response: > 100 µM

Prompt: Next: NNC(=S)N/N=C(\CCCC(=O)NCCc1ccccc1)CC(=O)c1ccccc1
Response: > 100 µM

Prompt: Next: O=c1cc(CNC2CCCC2)[nH]c(=O)[nH]1
Response: > 100 µM

Prompt: Next: O=C1CSC2(CC(/C=C/c3ccccc3)=NN2c2cccc(S(=O)(=O)O)c2)N1c1nc2ccccc2s1 (stereo unspecified)
Response: > 100 µM

Prompt: Next: CC1(C)O[C@H]2Cn3c(c(C#N)c4ccccc43)[C@H]2O1
Response: > 100 µM

Prompt: Next: Clc1ccc(-c2ccc(-c3nnc(CCc4nnc(-c5ccc(-c6ccc(Cl)cc6)o5)o4)o3)o2)cc1
Response: > 100 µM

Prompt: Next: Cc1cccc(C(=O)c2cccc3ccccc23)c1C(=O)O
Response: > 100 µM

Prompt: Next: Cn1cnc([N+](=O)[O-])c1Sc1nc2cc(Cl)c(F)cc2[nH]1
Response: 20.6 µM

Prompt: Next: c1ccc(C2=NC3(CCCCC3)N(c3nc4ccccc4s3)N2)nc1
Response: > 100 µM

Prompt: Next: Nc1ccn(C2OC(CO)C(O)C2F)c(=O)n1 (stereo unspecified)
Response: > 5000 µM

Prompt: Next: Cc1c2cc[nH]c(=O)c2c(C)c2c1[nH]c1cc(OCCN3CCN(C)CC3)ccc12
Response: 2.09 µM

The reported measurements were obtained from PubChem BioAssay (NCI).
